experiment summary: xn = mol fraction of the nth substance listed
study conditions: 288.15 K; 100 kPa; Liquid; Single path-length method; x1 = 0.25
quantity: speed of sound (m/s)
Note: unit m/s is implicit; provide only the numeric part.

What does the record list as speed of sound for C[N+](C)(C)Cc1ccccc1.[Cl-] [trimethylbenzylammonium chloride] + OCCOCCO ? 1769

For CCCC[N+](CCCC)(CCCC)Cc1ccccc1.[Cl-] [benzyltributylammonium chloride] + OCCO , what is its reported speed of sound? 1716.3

Find the recorded speed of sound belonging to CCCC[N+](CCCC)(CCCC)Cc1ccccc1.[Cl-] [benzyltributylammonium chloride] + OCCOCCO and report it. 1689.5

Recorded speed of sound of C[N+](C)(C)Cc1ccccc1.[Cl-] [trimethylbenzylammonium chloride] + OCC(O)CO , please. 1970.8

Report speed of sound for CCCC[N+](CCCC)(CCCC)Cc1ccccc1.[Cl-] [benzyltributylammonium chloride] + OCC(O)CO please. 1866.4

I'd like to know its speed of sound. The compound in question is C[N+](C)(C)Cc1ccccc1.[Cl-] [trimethylbenzylammonium chloride] + OCCO 1843.6

State the recorded speed of sound for this entry: C[N+](C)(C)Cc1ccccc1.[Cl-] [trimethylbenzylammonium chloride] + OCCOCCOCCO 1761

Which speed of sound reading was recorded for the compound CCCC[N+](CCCC)(CCCC)Cc1ccccc1.[Cl-] [benzyltributylammonium chloride] + OCCOCCOCCO ? 1692.4

---

experiment summary: refractive index (Na D-line) (dimensionless); xn = mol fraction of the nth substance listed
study conditions: 298.15 K; 100 kPa; Liquid; Standard Abbe refractometry; x1 = 0.25
Task for the reader: assign each of the following molecules its reported refractive index.
Respond numerically, and do not add a unit to the figure.

Data request, read-out refractive index, for C[N+](C)(C)Cc1ccccc1.[Cl-] [trimethylbenzylammonium chloride] + OCC(O)CO 1.5089

// lookup refractive index for C[N+](C)(C)Cc1ccccc1.[Cl-] [trimethylbenzylammonium chloride] + OCCOCCO 1.4911

Any idea what its refractive index is? The molecule is CCCC[N+](CCCC)(CCCC)Cc1ccccc1.[Cl-] [benzyltributylammonium chloride] + OCC(O)CO 1.5051

Param item = CCCC[N+](CCCC)(CCCC)Cc1ccccc1.[Cl-] [benzyltributylammonium chloride] + OCCOCCO ; retrieve measured refractive index. 1.4909

Recorded refractive index of CCCC[N+](CCCC)(CCCC)Cc1ccccc1.[Cl-] [benzyltributylammonium chloride] + OCCO , please. 1.4947

For the molecule C[N+](C)(C)Cc1ccccc1.[Cl-] [trimethylbenzylammonium chloride] + OCCO , what refractive index is on record? 1.4951

Could you share which refractive index value was measured for CCCC[N+](CCCC)(CCCC)Cc1ccccc1.[Cl-] [benzyltributylammonium chloride] + OCCOCCOCCO ? 1.4889

Reported refractive index, molecule C[N+](C)(C)Cc1ccccc1.[Cl-] [trimethylbenzylammonium chloride] + OCCOCCOCCO : ____ 1.488

---

experiment summary: xn = mol fraction of the nth substance listed
study conditions: 318.15 K; 100 kPa; Liquid; Falling or rolling sphere viscometry; x1 = 0.25
Please provide measured viscosity for the entries that follow.
Numbers only here, please. The scale is mPa·s.

Query (compound): C[N+](C)(C)Cc1ccccc1.[Cl-] [trimethylbenzylammonium chloride] + OCC(O)CO ; field requested: viscosity 171.8

Which viscosity reading was recorded for the compound CCCC[N+](CCCC)(CCCC)Cc1ccccc1.[Cl-] [benzyltributylammonium chloride] + OCCOCCO ? 96.78

Reported viscosity, compound CCCC[N+](CCCC)(CCCC)Cc1ccccc1.[Cl-] [benzyltributylammonium chloride] + OCCO : ____ 89.9

Look at this compound and give its reported viscosity. C[N+](C)(C)Cc1ccccc1.[Cl-] [trimethylbenzylammonium chloride] + OCCOCCO 34.8

Report viscosity for CCCC[N+](CCCC)(CCCC)Cc1ccccc1.[Cl-] [benzyltributylammonium chloride] + OCC(O)CO please. 497.7

viscosity for CCCC[N+](CCCC)(CCCC)Cc1ccccc1.[Cl-] [benzyltributylammonium chloride] + OCCOCCOCCO ? 85.2

Report viscosity for C[N+](C)(C)Cc1ccccc1.[Cl-] [trimethylbenzylammonium chloride] + OCCOCCOCCO please. 87.8

Which viscosity reading was recorded for the compound C[N+](C)(C)Cc1ccccc1.[Cl-] [trimethylbenzylammonium chloride] + OCCO ? 19.9

---

experiment summary: refractive index (Na D-line) (dimensionless); xn = mol fraction of the nth substance listed
study conditions: 313.15 K; 100 kPa; Liquid; Standard Abbe refractometry; x1 = 0.25
quantity: refractive index
Number only, no unit.

If you can, please state the reported refractive index value of CCCC[N+](CCCC)(CCCC)Cc1ccccc1.[Cl-] [benzyltributylammonium chloride] + OCCOCCO . 1.486

Quick check: refractive index of CCCC[N+](CCCC)(CCCC)Cc1ccccc1.[Cl-] [benzyltributylammonium chloride] + OCCOCCOCCO ? 1.4842

What does the data say about its refractive index? Entry: CCCC[N+](CCCC)(CCCC)Cc1ccccc1.[Cl-] [benzyltributylammonium chloride] + OCC(O)CO 1.5006

// query refractive index value for entry C[N+](C)(C)Cc1ccccc1.[Cl-] [trimethylbenzylammonium chloride] + OCC(O)CO 1.5052

---

experiment summary: xn = mol fraction of the nth substance listed
study conditions: 308.15 K; 100 kPa; Liquid; Alternating current cell with electrodes; x1 = 0.25
quantity: electrical conductivity
Give me the value, and tack the unit on after it.

Recorded electrical conductivity for C[N+](C)(C)Cc1ccccc1.[Cl-] [trimethylbenzylammonium chloride] + OCC(O)CO , please? 0.077 S/m

Quick one: electrical conductivity of CCCC[N+](CCCC)(CCCC)Cc1ccccc1.[Cl-] [benzyltributylammonium chloride] + OCCOCCO ? 0.066 S/m

Consider the compound shown here: CCCC[N+](CCCC)(CCCC)Cc1ccccc1.[Cl-] [benzyltributylammonium chloride] + OCCOCCOCCO What is its recorded electrical conductivity? 0.043 S/m

Would you kindly share the measured electrical conductivity for C[N+](C)(C)Cc1ccccc1.[Cl-] [trimethylbenzylammonium chloride] + OCCOCCO ? 0.254 S/m

Give the measured electrical conductivity of C[N+](C)(C)Cc1ccccc1.[Cl-] [trimethylbenzylammonium chloride] + OCCO . 0.643 S/m

Suppose we examine the compound CCCC[N+](CCCC)(CCCC)Cc1ccccc1.[Cl-] [benzyltributylammonium chloride] + OCC(O)CO ; what electrical conductivity value has been reported? 0.019 S/m

Given the compound CCCC[N+](CCCC)(CCCC)Cc1ccccc1.[Cl-] [benzyltributylammonium chloride] + OCCO , what is its reported electrical conductivity? 0.099 S/m

# lookup: electrical conductivity of C[N+](C)(C)Cc1ccccc1.[Cl-] [trimethylbenzylammonium chloride] + OCCOCCOCCO 0.152 S/m

---

experiment summary: xn = mol fraction of the nth substance listed
study conditions: 293.15 K; 100 kPa; Liquid; Single path-length method; x1 = 0.25
Can you tell me speed of sound for the items I'm about to list?
Respond with the bare value in m/s.

I have this compound here, CCCC[N+](CCCC)(CCCC)Cc1ccccc1.[Cl-] [benzyltributylammonium chloride] + OCCOCCOCCO , and I need its recorded speed of sound. 1675.8

Any idea what its speed of sound is? The compound is C[N+](C)(C)Cc1ccccc1.[Cl-] [trimethylbenzylammonium chloride] + OCCOCCOCCO 1746.2

Data request, read-out speed of sound, for C[N+](C)(C)Cc1ccccc1.[Cl-] [trimethylbenzylammonium chloride] + OCC(O)CO 1953

Look up speed of sound for this compound: C[N+](C)(C)Cc1ccccc1.[Cl-] [trimethylbenzylammonium chloride] + OCCOCCO 1755.8

---

experiment summary: xn = mol fraction of the nth substance listed
study conditions: 283.15 K; 100 kPa; Liquid; Single path-length method; x1 = 0.25
quantity: speed of sound (m/s)
Please give a number only; it is taken to be in m/s.

Field request: speed of sound | item: C[N+](C)(C)Cc1ccccc1.[Cl-] [trimethylbenzylammonium chloride] + OCCOCCOCCO 1776.2

Which speed of sound value belongs to C[N+](C)(C)Cc1ccccc1.[Cl-] [trimethylbenzylammonium chloride] + OCCO ? 1856.7

So what's the measured speed of sound for this one? CCCC[N+](CCCC)(CCCC)Cc1ccccc1.[Cl-] [benzyltributylammonium chloride] + OCCO 1734.9

# input molecule: CCCC[N+](CCCC)(CCCC)Cc1ccccc1.[Cl-] [benzyltributylammonium chloride] + OCCOCCOCCO ; wanted: its speed of sound 1710.1

# speed of sound lookup, item C[N+](C)(C)Cc1ccccc1.[Cl-] [trimethylbenzylammonium chloride] + OCC(O)CO 1992.6

Consider the molecule shown here: C[N+](C)(C)Cc1ccccc1.[Cl-] [trimethylbenzylammonium chloride] + OCCOCCO What is its recorded speed of sound? 1782.6

May I ask what speed of sound has been recorded for CCCC[N+](CCCC)(CCCC)Cc1ccccc1.[Cl-] [benzyltributylammonium chloride] + OCC(O)CO ? 1908

What value of measured speed of sound is listed for CCCC[N+](CCCC)(CCCC)Cc1ccccc1.[Cl-] [benzyltributylammonium chloride] + OCCOCCO ? 1706.8
